These entries and their values trace back to patent US11371056B2.

Kindly supply the reported Turnover values for the records listed here.
Test system: Pseudomonas fluorescens HPPD polypeptide (wild-type and mutants)
Test: Coupled HPPD activity assay: turnover and residual turnover in crude HPPD polypeptide extracts with and without Cmpd. 1
Assay type: biochemical
Settings: absence of Cmpd. 1; changes in absorbance (OD) at 320 nm in the coupled assay, 30 min
Answers are plain numbers.

Molecule | Assay readout | Observed
SEQ ID NO:13 (protein, mutant HPPD polypeptide) MADLYENPMGLMGFEFIEFASPTPGTLEPIFEIMGFTKVATHRSKNVHLYRQGEINLILNNEPNSIASYFAAEHGPSVCGMAFRVKDSQKAYNRALELGAQPIHIDTGPMELNLPAIKGIGGAPLYLIDRFGEGSSIYDIDFVYLEGVERNPVGAGLKVIDHLTHNVYRGRMVYWANFYEKLFNFREARYFDIKGEYTGLTSKAMSAPDGMIRIPLNEESSKGAGQIEEFLMQFNGEGIQHVAFLTDDLVKTWDALKKIGMRFMTAPGDEYYEMLEGRLPDHGEPVDQLQARGILLDGSSVEGDKRLLLQIFSETLMGPVFFEFIQRKGDDGFGPDSFKVLFEQIERDQVRRGVLTAD | Turnover | 0.168

Report Turnover for every entry below.
1. SEQ ID NO:69 (protein, mutant HPPD polypeptide) MADLYENPMGLMGFEFIEFASPTPGTLEPIFEIMGFTKVATHRSKNVHLYRQGEINLILNNEPNSIASYFAAEHGPSVCGMAFRVKDSQKAYNRALELGAQPIHIDTGPMELNLPAIKGIGGAPLYLIDRFGEGSSIYDIDFVYLEGVERNPVGAGLKVIDHLTHNVYRGRMVYWANFYEKLFNFREARYFDIKGEYTGLTSKAMSAPDGMIKIPLNEESSKGAGQIEEFLMQFNGEGIQHVAFLTDDLVKTWDALKKIGMRFMTAPGDEYYEMLEGRLPDHGEPVDQLQARGILLDGSSVEGDKRLLLQIFSEQLMGPVFFEFIQRKGDDGFGPDSFKVLFESIERDQVRRGVLTAD
2. SEQ ID NO:25 (protein, mutant HPPD polypeptide) MADLYENPMGLMGFEFIEFASPTPGTLEPIFEIMGFTKVATHRSKNVHLYRQGEINLILNNEPNSIASYFAAEHGPSVCGMAFRVKDSQKAYNRALELGAQPIHIDTGPMELNLPAIKGIGGAPLYLIDRFGEGSSIYDIDFVYLEGVERNPVGAGLKVIDHLTHNVYRGRMVYWANFYEKLFNFREARYFDIKGEYTGLTSKAMSAPDGMIRIPLNEESSKGAGQIEEFLMQFNGEGIQHVAFLTDDLVKTWDALKKIGMRFMTAPGDEYYEMLEGRLPDHGEPVDQLQARGILLDGSSVEGDKRLLLQIFSETLMGPVFFEFIQRKGDDGFGPHSFKVLFESIERDQVRRGVLTAD
3. SEQ ID NO:47 (protein, mutant HPPD polypeptide) MADLYENPMGLMGFEFIEFASPTPGTLEPIFEIMGFTKVATHRSKNVHLYRQGEINLILNNEPNSIASYFAAEHGPSVCGMAFRVKDSQKAYNRALELGAQPIHIDTGPMELNLPAIKGIGGAPLYLIDRFGEGSSIYDIDFVYLEGVERNPVGAGLKVIDHLTHNVYRGRMVYWANFYEKLFNFREARYFDIKGEYTGLTSKAMSAPDGMIKIPLNEESSKGAGQIEEFLMQFNGEGIQHVAFLTDDLVKTWDALKKIGMRFMTAPGDEYYEMLEGRLPDHGEPVDQLQARGILLDGSSVEGDKRLLLQIFSERLMGPVFFEFIQRKGDDGFGPDSFKVLFESIERDQVRRGVLTAD

Resp:
0.173
0.25
0.09
